From: the supplement of paper PMC10899765

Listing of recorded one-nucleolus phenotype percent effect by entry.
Test system: MCF10A
Protocol notes: one-nucleolus phenotype percent effect (relative to siNT 0% and siNOL11 100%); higher = more cells with one nucleolus (ribosome biogenesis inhibition)
Applied conditions: 20 nM; 72 h
Express the result in % but write the number alone.

Examples with answers:
- Sequence code: "UCUGGUAAGAGAUUUGGGCAUA [hsa-miR-4490]"
  Quantity unit: "%"
  Recorded number: -25.9
- Sequence code: "UGGGUUCCUGGCAUGCUGAUUU [hsa-miR-23b-5p]"
  Quantity unit: "%"
  Recorded number: 2.38
- Sequence code: "CCUCCCACACCCAAGGCUUGCA [hsa-miR-532-3p]"
  Quantity unit: "%"
  Recorded number: 5.19
- Sequence code: "UAAUGCCCCUAAAAAUCCUUAU [hsa-miR-365b-3p]"
  Quantity unit: "%"
  Recorded number: 5.41
- Sequence code: "UGUUGUCAUGUUUUUUCCCUAG [hsa-miR-6755-3p]"
  Quantity unit: "%"
  Recorded number: -6.42
- Sequence code: "UGAAGCCAGCUCUGGUCUGGGC [hsa-miR-4786-3p]"
  Quantity unit: "%"
  Recorded number: 25

Query: Entry under review: AGAGGCUGAGAAGGUGAUGUUG [hsa-miR-6884-5p] . Reported one-nucleolus phenotype percent effect?
Response: 41.6

Query: Entry under review: CCAGUAUUAACUGUGCUGCUGA [hsa-miR-16-1-3p] . Reported one-nucleolus phenotype percent effect?
Response: 7.96

Query: Entry under review: CGGGCCGGAGGUCAAGGGCGU [hsa-miR-6781-5p] . Reported one-nucleolus phenotype percent effect?
Response: -2.25

Query: Entry under review: UUUGGUCCCCUUCAACCAGCUA [hsa-miR-133b] . Reported one-nucleolus phenotype percent effect?
Response: 16.1

Query: Entry under review: AAUCCACGCUGAGCUUGGCAUC [hsa-miR-5092] . Reported one-nucleolus phenotype percent effect?
Response: 14.7

Query: Entry under review: UGCCCUUAAAGGUGAACCCAGU [hsa-miR-938] . Reported one-nucleolus phenotype percent effect?
Response: 6.19

Query: Entry under review: CCAGGAGGCGGAGGAGGUGGAG [hsa-miR-4459] . Reported one-nucleolus phenotype percent effect?
Response: 9.39

Query: Entry under review: AGUGCCUGAGGGAGUAAGAGCCC [hsa-miR-550a-5p] . Reported one-nucleolus phenotype percent effect?
Response: 7.21

Query: Entry under review: AAGCCCUUACCCCAAAAAGCAU [hsa-miR-129-2-3p] . Reported one-nucleolus phenotype percent effect?
Response: 24

Query: Entry under review: UCGGCCUGACCACCCACCCCAC [hsa-miR-1234-3p] . Reported one-nucleolus phenotype percent effect?
Response: -20.1
